System: SNB-19
Assay: NCI tumour cell line growth inhibition, 48 h
The source made the active and inactive calls. No stated cut-off is given here; in the data, active = GI50 up to about 1.1 µM and inactive = higher.
Pick from YES for active, NO for inactive when you respond.

# example entries with known answers
{"columns": ["compound", "labelValue"],
 "data": [
  ["Cc1ccc(/C=N/Nc2cc(C)c3ccccc3n2)s1", "NO"],
  ["CCOC(=O)C1=c2[nH]c3cccc4cccc(c43)n2C(=O)CC1c1ccccc1 (stereo not given)", "NO"],
  ["COC(=O)C1Cc2c([nH]c3ccccc23)C(c2ccccc2O)N1Cc1ccccc1 (stereo not given)", "NO"]
]}

Please let me know the test result on file for Cc1cccc2c(NCCN(C)C)c3cccc(C(=O)NCCN(C)C)c3nc12 .
YES

Please let me know the test result on file for CC(=O)OCC1OC(n2c(C)cc(C)c(C#N)c2=S)C(OC(C)=O)C(OC(C)=O)C1OC(C)=O (stereo not given) .
NO

Please let me know the test result on file for CCN(CC)C(=S)N/N=C(\C)c1ccccc1O .
NO

Please let me know the test result on file for CC1=NN(c2nc(N)nc(C/C(N)=N/O)n2)C(C)(C)C1 .
NO

Please let me know the test result on file for Cc1ccc(C(=O)Nc2ccc(S(=O)(=O)O)c3cc(S(=O)(=O)O)cc(S(=O)(=O)O)c23)cc1N .
NO

* * *

Tested on: HOP-62
Experiment: NCI tumour cell line growth inhibition, 48 h
Active and inactive are the calls of the source. Cut-off read from the data, not from the text of the source: active = GI50 up to about 1.1 µM and inactive = higher.
Pick from 1 (active), 0 (inactive) when you respond.

# example entries with known answers
{"columns": ["compound", "labelValue"],
 "data": [
  ["N#CC1([N+](=O)[O-])C=C1c1ccccc1 (stereo not given)", 0],
  ["COCC[N+](CCNC(=O)c1cccc2c(N)c3cccc(C)c3nc12)(CCOC)Cc1ccc([N+](=O)[O-])cc1", 0],
  ["COc1ccccc1N1C(=O)CS(=O)(=O)C1c1cccc(Oc2ccccc2)c1 (stereo not given)", 0]
]}

Please let me know the test result on file for COC1OC(Cn2cc([N+](=O)[O-])nc2C)C(O)C(O)C1O (stereo not given) .
0

Please let me know the test result on file for O/N=C1\CCc2nonc2\C1=N/Nc1ccccc1 .
0

Please let me know the test result on file for Cc1cnc2c(c1C)C(=O)c1ccccc1C2=O .
0

Please let me know the test result on file for CC(=O)O[C@H]1CC[C@@]2(C)C(=CC[C@@H]3[C@@H]2CC[C@]2(C)C(=O)/C(=C\c4ccccc4)C[C@@H]32)C1 .
0

Please let me know the test result on file for Cc1nc2c(o1)C(=O)c1ccccc1/C2=N/c1ccccn1 .
0

Please let me know the test result on file for COc1ccc(C(CC(=O)C(C)(C)CN2CCCCC2)SCCS(=O)(=O)O)cc1 (stereo not given) .
0

* * *

Test system: SN12C
Assay: NCI tumour cell line growth inhibition, 48 h
Activity calls are given as the source filed them. Cut-off read from the data, not from the text of the source: active = GI50 up to about 1.1 µM and inactive = higher.
compounds and their reported GI50

{"columns": ["compound", "experimentalSystem", "quantityMeasured", "result"],
 "data": [
  ["CC(=O)c1sc2c(c1OC(=O)c1ccco1)c(=O)n(-c1ccccc1)c(=S)n2-c1ccccc1", "SN12C", "GI50", "26 µM (inactive)"]
]}

Give SN12C GI50 for CC1(C)S[C@@H]2[C@H](NC(=O)/C=C/c3ccccc3)C(=O)N2[C@H]1C(=O)O
> 100 µM (inactive)

Give SN12C GI50 for CC1CN=C(Nc2ccc(S(N)(=O)=O)cc2)S1 (centres undefined)
> 100 µM (inactive)

Give SN12C GI50 for C=C1CCC2C(C)(CO)C(O)CCC2(C)C1C/C=C1\C(=O)OCC1O (centres undefined)
15.2 µM (inactive)

Give SN12C GI50 for COc1cccc(Nc2nc(N)nc(N)c2N)c1
20.1 µM (inactive)

Give SN12C GI50 for CC1Nc2ccccc2NC1C=C(C#N)C#N (centres undefined)
15.6 µM (inactive)

Give SN12C GI50 for O=c1c(=O)c2cscc2c1=O
5.87 µM (inactive)

* * *

Test system: HCT-15
quantityMeasured: GI50

Worked set:
{"columns": ["molecule", "quantityMeasured", "result"],
 "data": [
  ["O=C1CN2C(c3ccccc3)=NN(c3ccc([N+](=O)[O-])cc3)C2(c2ccccc2)c2cc(Cl)ccc2N1CC1CC1 (configuration not stated)", "GI50", "> 100 µM"],
  ["O=C1CC(c2ccc([N+](=O)[O-])cc2)C2(C(=O)NC(=S)NC2=O)C(c2ccc([N+](=O)[O-])cc2)C1 (configuration not stated)", "GI50", "18.9 µM"],
  ["N#Cc1[nH]c(=O)n(-c2ccc([N+](=O)[O-])cc2)c1N", "GI50", "> 10 µM"],
  ["CC1OC(OC2C(OC(=O)[C@@H]3CC(C)(C)C[C@@H]4C5=CC[C@@H]6[C@@]7(C)C[C@H](O)[C@H](OC8OC(CO)C(O)C(O)C8O)[C@@](C)(CO)C7[C@H](O)C[C@@]6(C)[C@]5(C)C[C@@H](O)[C@H]43)OCC(O)C2O)C(O)C(O)C1O (some centres not stated)", "GI50", "> 15 µM"],
  ["Cc1oc2c(c1C)S(=O)(=O)C(C#N)=CN2", "GI50", "> 100 µM"]
]}

Please look up its GI50: CCOC(CN(C)C(=O)Nc1cccc2ccccc12)OCC
> 10 µM

Please look up its GI50: CCOC(=O)C1=C(C)NC(C)=C(C(=O)OCCNC(=O)c2ccc(N=[N+]=[N-])cc2)C1c1ccccc1C(F)(F)F (configuration not stated) [AZIDOPINE]
8.45 µM

* * *

Test system: HOP-62
Test: NCI tumour cell line growth inhibition, 48 h
The source made the active and inactive calls. Rule as the data show it: active = GI50 up to about 1.1 µM and inactive = higher.
Pick from true (1) for active, false (0) for inactive when you respond.

# example entries with known answers
{"columns": ["compound", "experimentalSystem", "labelValue"],
 "data": [
  ["COc1cc(C2c3cc4c(cc3[C@@H](Nc3ccc([N+](=O)[O-])cc3)C3COC(=O)[C@H]23)OCO4)cc(OC)c1O (some centres undefined)", "HOP-62", "true (1)"],
  ["COc1cc(/C=C2\\C[C@H]3[C@@H]4CC=C5C=C(N6CCCC6)CC[C@]5(C)[C@H]4CC[C@]3(C)C2=O)cc(OC)c1OC", "HOP-62", "false (0)"],
  ["CCOC(=S)SCC(=O)O", "HOP-62", "false (0)"]
]}

Please let me know the test result on file for CC(C)=CCC[C@@H](C)C1=C(O)C(=O)C(C)=C(N[C@H](C)c2ccccc2)C1=O .
false (0)

* * *

compounds and their reported GI50
Test system: NCI-H226
Assay: NCI tumour cell line growth inhibition, 48 h
Activity calls are given as the source filed them. Cut-off read from the data, not from the text of the source: active = GI50 up to about 1.1 µM and inactive = higher.

{"columns": ["compound", "GI50"],
 "data": [
  ["C=CCc1ccccc1C1CC2(C(=O)OC)OC1C(C(=O)OC)=C2C(=O)OC (stereo unspecified)", "> 10 µM (inactive)"],
  ["COc1cc(C2c3cc4c(cc3[C@@H](N(C)C)[C@H]3COC(=O)C23)OCO4)cc(OC)c1O (stereo partly specified)", "> 100 µM (inactive)"],
  ["CC1(C)C(=O)N=C(N)N1C(=O)OCc1ccccc1", "> 100 µM (inactive)"],
  ["CCOC(=O)C1=c2[nH]c3cccc4cccc(c43)n2C(=O)CC1c1ccccc1 (stereo unspecified)", "> 100 µM (inactive)"],
  ["O=C(Cn1c2ccc(Br)cc2c2nc3ccccc3nc21)NCc1ccccc1", "78.7 µM (inactive)"]
]}

Give NCI-H226 GI50 for CC1=NN(c2nc(N)nc(C/C(N)=N/O)n2)C(C)(C)C1
> 100 µM (inactive)

Give NCI-H226 GI50 for CCc1nc(N)nc(N)c1-c1ccc(N2CCOCC2)c(N=[N+]=[N-])c1
98.2 µM (inactive)

Give NCI-H226 GI50 for COC(=O)C1Cc2c([nH]c3ccccc23)C(c2ccccc2O)N1Cc1ccccc1 (stereo unspecified)
35.7 µM (inactive)

Give NCI-H226 GI50 for CC1(CCCO)CCCCCC(C)(CCCO)C1=O (stereo unspecified)
> 100 µM (inactive)

Give NCI-H226 GI50 for NC(=O)c1ccc([N+](=O)[O-])cc1
> 100 µM (inactive)

Give NCI-H226 GI50 for CC(C)(CN1CCCCC1)C(/C=C/c1ccccc1)=N\NC(=O)N/N=C(/C=C/c1ccccc1)C(C)(C)CN1CCCCC1
2.37 µM (inactive)

Give NCI-H226 GI50 for CCOC(=O)C1=C(C)NC(C)=C(C(=O)OCCNC(=O)c2ccc(N=[N+]=[N-])cc2)C1c1ccccc1C(F)(F)F (stereo unspecified)
15 µM (inactive)

Give NCI-H226 GI50 for c1ccc(C2N=NN(c3ccccc3)C2N2CCCCC2)cc1 (stereo unspecified)
> 100 µM (inactive)

Give NCI-H226 GI50 for CCOC(=O)C(C(=O)OCC)c1cc(-c2cc3ccccc3o2)oc(=O)c1C#N
21.1 µM (inactive)

Give NCI-H226 GI50 for COC(=O)C(=O)C(C#N)c1ccc(Cl)c(Cl)c1 (stereo unspecified)
> 100 µM (inactive)
